All values here come from patent US11053235B2.

System: HBV
Experiment: Anti-viral assay in HepG2.2.15 cells: HBV inhibitory activity (HBV DNA in culture medium by q-PCR)
Assay type: cell-based
Conditions: Hepatitis B virus, HepG2.2.15, 144 h, HepG2.2.15 cells, 6 days treatment, HBV DNA in culture medium by q-PCR, highest concentration 10 uM; read-out: EC50
Readout kind: EC50 (nM)

>  <Molecule>
COC(=O)C1=C([C@H]2CC[C@H](c3cnn(CCC(=O)O)c3)CC2)NC(c2nccs2)=NC1c1ccc(F)cc1Cl (single isomer, unassigned)

>  <Measured>
10

$$$$
>  <Molecule>
CCOC(=O)C1=C(C2CCN(c3cc(C(=O)O)ncn3)CC2)NC(c2nccs2)=NC1c1ccc(F)c(F)c1Cl (single isomer, unassigned)

>  <Measured>
19

$$$$
>  <Molecule>
COC(=O)C1=C(C2CCN(c3ncc(N(C)C)c(C(=O)O)n3)CC2)NC(c2nccs2)=NC1c1ccc(F)c(F)c1Cl (single isomer, unassigned)

>  <Measured>
12

$$$$
>  <Molecule>
CCOC(=O)C1=C(C2CCN(c3ncc(F)c(C(=O)O)n3)CC2)NC(c2nccs2)=NC1c1ccc(F)c(F)c1Cl (single isomer, unassigned)

>  <Measured>
16

$$$$
>  <Molecule>
COC(=O)C1=C([C@H]2CC[C@H](c3ncc(CC(=O)O)cn3)CC2)NC(c2nccs2)=NC1c1ccc(F)cc1Cl (single isomer, unassigned)

>  <Measured>
11

$$$$

###

Tested on: HBV
Assay: Anti-viral assay in HepG2.2.15 cells: HBV inhibitory activity (HBV DNA in culture medium by q-PCR)
Format: cell-based
Details: Hepatitis B virus, HepG2.2.15, 144 h, HepG2.2.15 cells, 6 days treatment, HBV DNA in culture medium by q-PCR, highest concentration 10 uM; read-out: EC50
pEC50: −log10 of the molar value.

>  <Compound>
CCOC(=O)C1=C(C2CCN(c3cnc(C)c(C(=O)O)n3)CC2)NC(c2nccs2)=NC1c1ccc(F)c(F)c1Cl (single isomer, unassigned)

>  <Result modifier>
=

>  <pEC50>
7.10

$$$$
>  <Compound>
CCOC(=O)C1=C(C2CCN(c3ncc(C(=O)O)cn3)C(C)C2)NC(c2nccs2)=NC1c1ccc(F)c(F)c1Cl (stereo not drawn)

>  <Result modifier>
>

>  <pEC50>
8.34

$$$$
>  <Compound>
COC(=O)C1=C(C2CCN(c3ncc(C(=O)O)s3)CC2)NC(c2nccs2)=NC1c1ccc(F)c(F)c1Cl (single isomer, unassigned)

>  <Result modifier>
=

>  <pEC50>
8.14

$$$$
>  <Compound>
COC(=O)C1=C(C2CCN(c3ncc(CC(=O)O)cn3)CC2)NC(c2nccs2)=NC1c1cccc(F)c1C (single isomer, unassigned)

>  <Result modifier>
=

>  <pEC50>
8.24

$$$$
>  <Compound>
CCOC(=O)C1=C(C2CCN(c3ncc(CC(=O)O)cn3)CC2)NC(c2nccs2)=NC1c1cccc(F)c1C (single isomer, unassigned)

>  <Result modifier>
>

>  <pEC50>
8.34

$$$$
>  <Compound>
COC(=O)C1=C(C2CCN(c3ncc([C@]4(O)C[C@@H](C(=O)O)C4)cn3)CC2)NC(c2nccs2)=NC1c1ccc(F)c(F)c1Cl (single isomer, unassigned)

>  <Result modifier>
>

>  <pEC50>
8.34

$$$$

###

System: HBV
Assay: Anti-viral assay in HepG2.2.15 cells: HBV inhibitory activity (HBV DNA in culture medium by q-PCR)
Assay type: cell-based
Conditions: Hepatitis B virus, HepG2.2.15, 144 h, HepG2.2.15 cells, 6 days treatment, HBV DNA in culture medium by q-PCR, highest concentration 10 uM; read-out: EC50
Procedure: Example 2: Anti-Viral Assay in HepG2.2.15 Cells 1.1. […] The HBV DAN change in the cell culture medium induced by the compounds is measured by q-PCR method. Briefly, the HBV DNA in the culture medium is extracted using QIAamp 96 DNA Blood Kit according to the manual and then quantified by q-PCR using the primers and probe in the table below. EC50 and CC50 values are calculated by the GRAPHPAD PRISM software.
Readout kind: log10(EC50) (log10 of the value in nM)

>  <Compound>
COC(=O)C1=C(C2CCN(c3ncc(CC(=O)O)cn3)CC2)NC(c2nccs2)=NC1c1ccc(F)cc1Cl (single isomer, unassigned)

>  <Measured>
0.74

$$$$
>  <Compound>
CCOC(=O)C1=C(C2CCN(c3nc(C)c(C(=O)O)c(C)n3)CC2)NC(c2nccs2)=NC1c1ccc(F)c(F)c1Cl (single isomer, unassigned)

>  <Measured>
1.30

$$$$
>  <Compound>
COC(=O)C1=C([C@H]2CC[C@H](c3nc(CC(=O)O)co3)CC2)NC(c2nccs2)=NC1c1ccc(F)cc1Cl (single isomer, unassigned)

>  <Measured>
1.15

$$$$
>  <Compound>
COC(=O)C1=C(C2CCN(C(=O)c3cn[nH]c3)CC2)NC(c2nccs2)=NC1c1ccc(F)cc1Cl (single isomer, unassigned)

>  <Measured>
1.76

$$$$
>  <Compound>
COC(=O)C1=C(C2CCN(c3ncc(C(=O)O)o3)CC2)NC(c2nccs2)=NC1c1ccc(F)c(F)c1Cl (single isomer, unassigned)

>  <Measured>
1.73

$$$$
>  <Compound>
CCOC(=O)C1=C([C@H]2CC[C@H](c3cc(C(=O)O)n(C)n3)CC2)NC(c2nccs2)=NC1c1ccc(F)c(F)c1Cl (single isomer, unassigned)

>  <Measured>
0.79

$$$$
>  <Compound>
COC(=O)C1=C(C2CCN(c3cc(C(=O)O)c(N(C)C)cn3)CC2)NC(c2nccs2)=NC1c1ccc(F)c(F)c1Cl (single isomer, unassigned)

>  <Measured>
0.82

$$$$
>  <Compound>
CCOC(=O)C1=C(C2CCN(c3nc(C(=O)O)co3)CC2)NC(c2nccs2)=NC1c1ccc(F)c(F)c1Cl (single isomer, unassigned)

>  <Measured>
1.00

$$$$
>  <Compound>
COC(=O)C1=C(C2CCN(c3nc(C(=O)O)co3)CC2)NC(c2nccs2)=NC1c1ccc(F)c(F)c1Cl (single isomer, unassigned)

>  <Measured>
1.65

$$$$
>  <Compound>
CCOC(=O)C1=C(C2CCN(c3nc(C(F)(F)F)c(C(=O)O)s3)CC2)NC(c2nccs2)=NC1c1ccc(F)c(F)c1Cl (single isomer, unassigned)

>  <Measured>
1.11

$$$$
>  <Compound>
CCOC(=O)C1=C(C2CCN(c3ncc(OCC)c(C(=O)O)n3)CC2)NC(c2nccs2)=NC1c1ccc(F)c(F)c1Cl (single isomer, unassigned)

>  <Measured>
0.71

$$$$
>  <Compound>
COC(=O)C1=C(C2CCN(c3nc(C(=O)O)co3)CC2)NC(c2nccs2)=NC1c1ccc(F)cc1Cl (single isomer, unassigned)

>  <Measured>
1.95

$$$$
>  <Compound>
CCOC(=O)C1=C(C2CCN(c3ncc(C)c(C(=O)O)n3)CC2)NC(c2nccs2)=NC1c1ccc(F)c(F)c1Cl (single isomer, unassigned)

>  <Measured>
1.32

$$$$
>  <Compound>
CCOC(=O)Cc1ccnc(N2CCC(C3=C(C(=O)OC)C(c4ccc(F)cc4Cl)N=C(c4nccs4)N3)CC2)n1 (single isomer, unassigned)

>  <Measured>
2.18

$$$$
>  <Compound>
COC(=O)C1=C(C2CCN(c3ncc(C)c(C(=O)O)n3)CC2)NC(c2nccs2)=NC1c1ccc(Br)cc1Cl (single isomer, unassigned)

>  <Measured>
1.73

$$$$
>  <Compound>
COC(=O)C1=C(C2CCN(c3ncc(OC)c(C(=O)O)n3)CC2)NC(c2nccs2)=NC1c1ccc(F)c(F)c1C (single isomer, unassigned)

>  <Measured>
0.93

$$$$
>  <Compound>
CCOC(=O)C1=C(C2CCN(c3nc(C(=O)O)co3)C2)NC(c2nccs2)=NC1c1ccc(F)c(F)c1Cl (single isomer, unassigned)

>  <Measured>
2.86

$$$$
>  <Compound>
COC(=O)C1=C(C2CCN(c3ncc(C)c(C(=O)O)n3)CC2)NC(c2nccs2)=NC1c1cccc(F)c1Br (single isomer, unassigned)

>  <Measured>
1.30

$$$$
>  <Compound>
COC(=O)C1=C(C2CCN(c3ncc(C(=O)O)cn3)CC2)NC(c2nccs2)=NC1c1ccc(F)cc1Cl (single isomer, unassigned)

>  <Measured>
1.15

$$$$
>  <Compound>
COC(=O)C1=C([C@H]2CC[C@H](c3ncc(C4(C(=O)O)CC4)cn3)CC2)NC(c2nccs2)=NC1c1ccc(F)c(F)c1Cl (single isomer, unassigned)

>  <Measured>
1.18

$$$$
>  <Compound>
CCOC(=O)C1=C(C2CCN(c3nc(C(=O)O)cs3)CC2)NC(c2nccs2)=NC1c1ccc(F)c(F)c1Cl (single isomer, unassigned)

>  <Measured>
1.65

$$$$

###

System: HBV
Test: Anti-viral assay in HepG2.2.15 cells: HBV inhibitory activity (HBV DNA in culture medium by q-PCR)
Format: cell-based
Details: Hepatitis B virus, HepG2.2.15, 144 h, HepG2.2.15 cells, 6 days treatment, HBV DNA in culture medium by q-PCR, highest concentration 10 uM; read-out: EC50
Each entry below carries its reported EC50.
Readout kind: EC50 (nM)

>  <Molecule>
CCOC(=O)C1=C([C@H]2CC[C@H](c3nc(C(C)(C)C(=O)O)co3)CC2)NC(c2nccs2)=NC1c1ccc(F)c(F)c1Cl (single isomer, unassigned)

>  <Target desc>
HBV

>  <Readout units>
nM

>  <Measured>
18

$$$$
>  <Molecule>
CCOC(=O)C1=C([C@H]2CC[C@H](n3nccc3C(=O)O)CC2)NC(c2nccs2)=NC1c1ccc(F)c(F)c1Cl (single isomer, unassigned)

>  <Target desc>
HBV

>  <Readout units>
nM

>  <Measured>
110

$$$$
>  <Molecule>
CCOC(=O)C1=C(C2CCN(c3ncc(C(=O)O)c(C)n3)CC2)NC(c2nccs2)=NC1c1ccc(F)c(F)c1Cl (single isomer, unassigned)

>  <Target desc>
HBV

>  <Readout units>
nM

>  <Measured>
25

$$$$
>  <Molecule>
CCOC(=O)C1=C(C2CCN(c3ncc(C)c(C(=O)O)n3)CC2)NC(c2nccs2)=NC1c1ccc(F)cc1C (single isomer, unassigned)

>  <Target desc>
HBV

>  <Readout units>
nM

>  <Measured>
19

$$$$
>  <Molecule>
COC(=O)C1=C([C@H]2CC[C@H](c3ncc(CC(=O)O)cn3)CC2)NC(c2nccs2)=NC1c1ccc(F)c(F)c1Cl (single isomer, unassigned)

>  <Target desc>
HBV

>  <Readout units>
nM

>  <Measured>
11

$$$$
>  <Molecule>
COC(=O)C1=C([C@H]2CC[C@H](c3nc(CC(=O)O)c(C)o3)CC2)NC(c2nccs2)=NC1c1ccc(F)cc1Cl (single isomer, unassigned)

>  <Target desc>
HBV

>  <Readout units>
nM

>  <Measured>
22

$$$$
>  <Molecule>
CCOC(=O)C1=C(C2CCN(c3nncs3)CC2)NC(c2nccs2)=NC1c1ccc(F)c(F)c1Cl (single isomer, unassigned)

>  <Target desc>
HBV

>  <Readout units>
nM

>  <Measured>
30

$$$$
>  <Molecule>
CCOC(=O)C1=C([C@H]2CC[C@H](c3cnn(C(C)(C)CC(=O)O)c3)CC2)NC(c2nccs2)=NC1c1ccc(F)c(F)c1Cl (single isomer, unassigned)

>  <Target desc>
HBV

>  <Readout units>
nM

>  <Measured>
26

$$$$
>  <Molecule>
COC(=O)C1=C([C@H]2CC[C@H](c3nc(C(=O)O)co3)CC2)NC(c2nccs2)=NC1c1ccc(F)cc1Cl (single isomer, unassigned)

>  <Target desc>
HBV

>  <Readout units>
nM

>  <Measured>
11

$$$$
>  <Molecule>
CCOC(=O)C1=C([C@H]2CC[C@H](c3nc(C(=O)O)co3)CC2)NC(c2nccs2)=NC1c1ccc(F)cc1Cl (single isomer, unassigned)

>  <Target desc>
HBV

>  <Readout units>
nM

>  <Measured>
22

$$$$
>  <Molecule>
CCOC(=O)C1=C(C2CCN(c3cc(C(=O)O)nc(OC)n3)CC2)NC(c2nccs2)=NC1c1ccc(F)c(F)c1Cl (single isomer, unassigned)

>  <Target desc>
HBV

>  <Readout units>
nM

>  <Measured>
51

$$$$
